Could you please report measured Kd for the items listed next?
- Measured On: T1, cynomolgous serum albumin (cynomolgous, UniProt A2V9Z4 25-608)
- T1 construct: also called CSA; Cyano
- Method Summary: SPR, albumin on chip, pH 5.5;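 note: albumins amine-coupled onto carboxyl SPR chips, with each analyte also run over a hen egg lysozyme surface as negative control, Kd derived from binding kinetics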
Answers are plain numbers, in nM.

Answered examples (4):
BA11-oxime-fluorescein (VNAR, C-terminal oxime-linked benzaldehyde-peg-fluorescein) VNAR: TRVDQSPSSLSASVGDRVTITCVLTDTSYPLYSTYWYRKNPGSSNKEQISISGRYSESVNKGTKSFTLTISSLQPEDSATYYCRAMSTNIWTGDGAGTKVEIK : 5.54
BA11 C-terminal thiol derivative (VNAR, C-terminal thiol (intein cleavage with cysteamine), also called BA11-SH) VNAR: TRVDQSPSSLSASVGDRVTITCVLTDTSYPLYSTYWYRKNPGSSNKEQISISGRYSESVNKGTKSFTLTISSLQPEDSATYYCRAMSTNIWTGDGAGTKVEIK : 6.74
BA11-C terminal cysteine-maleimide-peg-fluorescein (VNAR, C-terminal cysteine conjugated to maleimide-peg-fluorescein, also called BA11-cys-mal-Fl) VNAR: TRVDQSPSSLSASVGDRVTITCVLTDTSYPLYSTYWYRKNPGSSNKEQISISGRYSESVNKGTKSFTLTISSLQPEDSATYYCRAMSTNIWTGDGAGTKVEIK : 8.21
BA11-C term thiol-maleimide-peg-fluorescein (VNAR, C-terminal thiol conjugated to maleimide-peg-fluorescein, also called BA11-S-mal-Fl) VNAR: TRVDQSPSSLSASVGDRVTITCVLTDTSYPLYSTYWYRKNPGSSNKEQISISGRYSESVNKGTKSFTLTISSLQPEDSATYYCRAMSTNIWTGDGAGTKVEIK : 7.01

Would you kindly look at the next entry?
**Q:** # query: Kd of entry BA11 (humanised HSA-binding VNAR) (VNAR, VNAR) VNAR: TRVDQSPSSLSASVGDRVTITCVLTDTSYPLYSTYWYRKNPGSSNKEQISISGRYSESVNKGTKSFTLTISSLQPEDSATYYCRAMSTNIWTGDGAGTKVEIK
**A:** 1.11
